Reference for the values: patent US12168007B1

Task for the reader: assign each of the following molecules its reported solubility thermodynamic at 4 h.
- Assay protocol: Thermodynamic solubility study (37° C., 4 hours)
- Type: physicochemical
- Stated conditions: fassgf or other biorelevant, thermodynamic from solid, SIF pH = 6.8, 4 hours, read-out: Thermodynamic sol.
Hi! Could you send only the number? It should be in µM, unit omitted.

# get_value(readout='solubility thermodynamic at 4 h', item= `CCOCN(C)C(=O)N[C@H]1CC[C@H](CCN2CCN(c3cccc(Cl)c3Cl)CC2)CC1` )
53.5

# get_value(readout='solubility thermodynamic at 4 h', item= `COCN(C)C(=O)N[C@H]1CC[C@H](CCN2CCN(c3cccc(Cl)c3Cl)CC2)CC1` )
147

# get_value(readout='solubility thermodynamic at 4 h', item= CCCN(C)C(=O)N[C@H]1CC[C@H](CCN2CCN(c3cccc(Cl)c3Cl)CC2)CC1 [Ref. Ex. 1, reference compound] )
27.7

# get_value(readout='solubility thermodynamic at 4 h', item= `CCCOCN(C)C(=O)N[C@H]1CC[C@H](CCN2CCN(c3cccc(Cl)c3Cl)CC2)CC1` )
32.7
